Measured values drawn from PubChem BioAssay (NCI) for this set.

# System: MCF7 breast
# Experimental protocol: NCI-60 one-dose screen, 48 h (100 = growth as untreated, 0 = no growth, -100 = all killed)
# Condition: 10 µM unless noted
Compounds without any hit were thinned out: in the full panel of roughly 83,000, 20% have a hit.
# Lookup of reported growth keyed by entry
// return numeric value only (unit: %, not printed)

Worked set:
>  <Compound>
Cc1ccc(NC(=O)c2ccc(CN3CCOCC3)c(C(F)(F)F)c2)cc1Oc1ccc(-c2[nH]nc3ncnc(N)c23)cc1

>  <Target>
MCF7 breast

>  <Observed result>
55.8

$$$$
>  <Compound>
CNCc1cccc2c1OCCCCCCC(C)(O)CC(C)(C)S(=O)(=O)c1ccc(cc1)-c1cnc(N)c(n1)C(=O)N2 (centres undefined)

>  <Target>
MCF7 breast

>  <Observed result>
-58.1

$$$$
>  <Compound>
NS(=O)(=O)c1ccc(Nc2nc(SCC(=O)c3ccc(Cl)cc3)nc3c2CCCC3)cc1

>  <Target>
MCF7 breast

>  <Observed result>
25.4

$$$$
>  <Compound>
COc1ccc(C(=O)c2c(N)c(C#N)cn2-c2ccccc2OC)cc1

>  <Target>
MCF7 breast

>  <Observed result>
13.9

$$$$
>  <Compound>
O=S(=O)(Nc1cccc2ccccc12)c1ccc(-c2cnc(C3CC3)o2)cc1

>  <Target>
MCF7 breast

>  <Observed result>
22

$$$$
>  <Compound>
Cn1ccnc1C(=O)/C=C/c1ccc(CNC(=O)c2ccc(Cl)cc2)cc1

>  <Target>
MCF7 breast

>  <Observed result>
10.5

$$$$
>  <Compound>
Cc1cc(S(=O)(=O)N(C)C)cc(NCC(=O)NC(=O)NCC(C)C)c1C

>  <Target>
MCF7 breast

>  <Observed result>
94.8

$$$$
>  <Compound>
COc1ccc([C@@H]2c3[nH]c4ccccc4c3C[C@H]3C(=O)N(C4CCN(CC5CCCCC5)CC4)CC(=O)N23)c(OC)c1

>  <Target>
MCF7 breast

>  <Observed result>
42.6

$$$$

The record that follows has no growth shown yet.
Incoming: Recall the reported growth of CC1=N[C@@H]2CN(C(=O)OC(C)(C)C)C[C@@H]2n2c1cc1ccccc1c2=O on MCF7 breast and write it down.
Outgoing: 95.6

###

# Tested on: MDA-MB-435 melanoma
# Experimental protocol: NCI-60 one-dose screen, 48 h (100 = growth as untreated, 0 = no growth, -100 = all killed)
# Condition: 10 µM unless noted
The panel holds about 83,000 compounds, 20% with a hit somewhere; the sample as a whole holds those more often.
Please use Criterion met for growth under 40% and Criterion not met for everything else, ties included.

Some solved cases for reference:
>  <Compound>
CCn1c(SCC(=O)Nc2cccc(C(=O)/C=C/c3ccc(C)cc3)c2)nc2ccccc2c1=O

>  <Classification>
Criterion not met

$$$$
>  <Compound>
Cn1ccnc1C(=O)/C=C/C=C/c1ccc(C(=O)Nc2ccc(F)cc2)cc1

>  <Classification>
Criterion met

$$$$
>  <Compound>
CC(C)(C)c1ccc(C(=O)Nc2sc3c(c2C(N)=O)CCC(O)C3)cc1 (centres undefined)

>  <Classification>
Criterion met

$$$$
>  <Compound>
COc1c(N2CC3CCCNC3C2)c(F)cc2c(=O)c(C(=O)N/N=C/c3ccc(N(C)C)cc3)cn(C3CC3)c12 (centres undefined)

>  <Classification>
Criterion not met

$$$$
>  <Compound>
CNC1CCc2c(sc(NC(=O)c3ccc(C(C)(C)C)cc3)c2C(N)=O)C1 (centres undefined)

>  <Classification>
Criterion not met

$$$$

Incoming: Answer whether the compound COc1c(N2CC3CCCNC3C2)c(F)cc2c(=O)c(C(=O)N/N=C/c3ccc(Br)cc3)cn(C3CC3)c12 (centres undefined) has growth strictly less than 40%
Outgoing: Criterion not met

Incoming: I'd appreciate it if you could check whether N/C(=N\C(N)=N\c1nc2ccccc2s1)c1ccc2ccccc2c1 has growth smaller than 40%.
Outgoing: Criterion not met

Incoming: Hello, is growth of the following compound strictly smaller than 40%? Oc1cccc2ccc(-c3nnc(SCc4ccc(O)c5ncccc45)o3)nc12
Outgoing: Criterion met

Incoming: Input COc1cc(OC)c(S(N)(=O)=O)cc1C(=O)/C=C/c1ccc(Cl)cc1 ; condition: growth strictly below 40%. Does it hold?
Outgoing: Criterion met

Incoming: Does this compound meet the criterion growth < 40%? Brc1ccccc1/C=N/Nc1nc(N/N=C/c2ccccc2Br)nc(N2CCOCC2)n1
Outgoing: Criterion not met

Incoming: Item COc1ccccc1C(=O)Nc1cccc2c1C(=O)C(=O)C=C2 : growth beneath 40%, strictly?
Outgoing: Criterion not met

Incoming: Field: below-cutoff. Rule: recorded growth strictly less than 40%. Subject: O=c1c2ccccc2nc(COc2ccccc2)n1NS(=O)(=O)c1ccc(Cl)cc1
Outgoing: Criterion met

Incoming: Would you kindly verify if growth of COc1ccccc1-n1cc(C#N)c(N)c1C(=O)c1ccc(Cl)cc1 is strictly less than 40%?
Outgoing: Criterion met

Incoming: Strictly below 40%: is that where growth of COC(=O)C(Cc1ccccc1)Nc1nc(NC(Cc2ccccc2)C(=O)OC)nc(N2CCOCC2)n1 (centres undefined) sits?
Outgoing: Criterion not met
